- Tested on: ERK1/2 phosphorylation of p90RSK in HCT116 cells
- Method summary: Detection of total and phospho-RSK by MSD ELISA (HCT116)
- Assay type: cell-based
- Conditions used: Homo sapiens, HCT-116, read-out: ERK1/ERK2 PRSK HCT116 EC50
Endpoint label: EC50

>>> experimental_value("C=CC(=O)Nc1cc(CN2CCN(C(C)=O)C[C@H]2C)ccc1Nc1nc(Nc2cc(OC)ncc2C)ncc1C(F)(F)F [Compound I-422]")
"< 100 nM"

// map C=CC(=O)Nc1cc(C)ccc1Nc1nc(Nc2nc(OC)ncc2F)ncc1C(F)(F)F [Compound I-357] to recorded EC50 (system: ERK1/2 phosphorylation of p90RSK in HCT116 cells)
101 to 500 nM

// map C=CC(=O)Nc1cc(C)ccc1Nc1nc(Nc2nc(OC)ncc2OC)ncc1C(F)(F)F [Compound I-349] to recorded EC50 (system: ERK1/2 phosphorylation of p90RSK in HCT116 cells)
101 to 500 nM

// map C=CC(=O)Nc1cc(CN2CCN(C)CC2)ccc1Nc1nc(Nc2nc(OC)ncc2C)ncc1C(F)(F)F [Compound I-394] to recorded EC50 (system: ERK1/2 phosphorylation of p90RSK in HCT116 cells)
501 to 999 nM

// map C#CC(=O)Nc1cc(C)ccc1Nc1nc(Nc2cc(OC)ncc2C)ncc1C(F)(F)F [Compound I-345] to recorded EC50 (system: ERK1/2 phosphorylation of p90RSK in HCT116 cells)
> 1000 nM

// map C=CC(=O)Nc1ccccc1Nc1nc(Nc2c[nH]nc2C)ncc1C(F)(F)F [Compound I-330] to recorded EC50 (system: ERK1/2 phosphorylation of p90RSK in HCT116 cells)
> 1000 nM
